test: Waters ACQUITY UPLC BEH C18, 100 × 2.1 mm, 1.7 µm, 40 °C, 0.3 to 0.4 mL/min, estimated dead time 0.63 min; A: water + 0.1% formic acid; B: methanol + 0.1% formic acid; gradient (min/%B) 0/0.5 0.1/0.5 10/80 10.1/99.5 12/99.5; conditions: stereoisomer not certain
endpoint_label: LC retention time (min)

compound	LC retention time / min
Oc1ccc(CCc2cc(O)cc(O)c2)cc1	5.15
Cc1cc2[nH]c(=O)c(=O)n(CC(O)C(O)C(O)CO)c2cc1C (stereo unspecified)	3.3
COc1cc2ccc(=O)oc2c(OC)c1O	4.28
NC(=O)CCC(NC(=O)CCCc1ccccc1)C(=O)O (stereo unspecified)	2.88
O=C(O)CC(=O)OCC1OC(Oc2c(-c3ccc(O)c(O)c3)oc3cc(O)cc(O)c3c2=O)C(O)C(O)C1O (stereo unspecified)	4.22

[1] C=CC1C(OC2OC(CO)C(O)C(O)C2O)OC=C2C(=O)N3CCC(=O)c4ccccc4NC(=O)C3CC21 (stereo unspecified)
[2] CC1(C)CC(=O)C2(C)CCC3(C)C(=CCC4C5(C)CCC(OC6OC(C(=O)O)C(O)C(O)C6OC6OC(CO)C(O)C(O)C6OC6OC(CO)C(O)C(O)C6O)C(C)(CO)C5CCC43C)C2C1 (stereo unspecified)
[Q] Of 1 and 2 , which shows the smaller LC retention time value? Lab note: record the label of whichever item you select.
[A] 1
(1: 3.77 min, 2: 7.49 min)

###

assay: Waters ACQUITY UPLC BEH C18, 100 × 2.1 mm, 1.7 µm, 40 °C, 0.3 to 0.4 mL/min, estimated dead time 0.63 min; A: water + 0.1% formic acid; B: methanol + 0.1% formic acid; gradient (min/%B) 0/0.5 0.1/0.5 10/80 10.1/99.5 12/99.5; settings: stereoisomer not certain
endpoint_label: LC retention time (min)

Would you please look over these solved cases?
compound	result
O=c1c(OC2OCC(O)C(O)C2O)c(-c2ccc(O)cc2)oc2cc(O)cc(O)c12 (stereo not drawn)	4.47
O=C(C=Cc1ccc(O)c(O)c1)OC(Cc1ccc(O)c(O)c1)C(=O)O (stereo not drawn)	4.6
CC(=O)OC1CC(COC2OC(CO)C(O)C(O)C2O)CNC12OC1CC3C4CCC5CC(OC6OC(CO)C(OC7OC(CO)C(OC8OC=C(O)C(O)C8O)C(O)C7OC7OC(CO)C(O)C(O)C7O)C(O)C6O)CCC5(C)C4CCC3(C)C1C2C (stereo not drawn)	3.88

[1] COc1cc(-c2oc3cc(OC4OC(C)C(O)C(O)C4O)cc(O)c3c(=O)c2O)ccc1O (stereo not drawn)
[2] C=CCS(=O)CC(NCC1(O)OCC(O)C(O)C1O)C(=O)O (stereo not drawn)
[Q] Of 1 and 2 , which shows the smaller LC retention time value? Lab note: record the label of whichever item you select.
[A] 2

###

test: Waters ACQUITY UPLC BEH C18, 100 × 2.1 mm, 1.7 µm, 40 °C, 0.3 to 0.4 mL/min, estimated dead time 0.63 min; A: water + 0.1% formic acid; B: methanol + 0.1% formic acid; gradient (min/%B) 0/0.5 0.1/0.5 10/80 10.1/99.5 12/99.5; details: stereoisomer not certain
endpoint_label: LC retention time (min)

Would you please look over these solved cases?
compound	value_units	LC retention time
O=C(O)CCC(NCC1(O)OCC(O)C(O)C1O)C(=O)NC(Cc1ccccc1)C(=O)O (stereo not drawn)	min	3.16
CCOC1OC2c3cc4c(cc3CCN(C)C2c2ccc3c(c21)OCO3)OCO4 (stereo not drawn)	min	5.15
COc1ccc2c(c1)[nH]c1c(C)nccc12	min	4.11
COc1ccc2c(c1)OC(OC1OC(CO)C(O)C(O)C1O)C(=O)N2O (stereo not drawn)	min	3.5
CC1OC(OC2C(OC3C(OC4CCC5(C)C(CCC6(C)C5CC=C5C7CC(C)(C)CC(OC(=O)CC(=O)O)C7(C)CCC56C)C4(C)CO)OC(C(=O)O)C(O)C3O)OC(CO)C(O)C2O)C(O)C(O)C1O (stereo not drawn)	min	6.73

[1] COc1c(O)cc(O)c2c(=O)cc(-c3ccccc3)oc12
[2] CC1CCC2(NC1)OC1CC3C4CC=C5CC(OC6OC(CO)C(OC7OC(CO)C(O)C(OC8OCC(O)C(O)C8O)C7OC7OC(CO)C(O)C(O)C7O)C(O)C6O)CCC5(C)C4CCC3(C)C1C2C (stereo not drawn)
[3] CC(C)(CO)C(O)C(=O)NCCC(=O)O (stereo not drawn)
[Q] // ascending sort on recorded LC retention time Rank them, then answer with their labels in that order.
[A] 3, 2, 1
(3: 2.48 min, 2: 4.72 min, 1: 7.27 min)

###

experiment: Waters ACQUITY UPLC BEH C18, 100 × 2.1 mm, 1.7 µm, 40 °C, 0.3 to 0.4 mL/min, estimated dead time 0.63 min; A: water + 0.1% formic acid; B: methanol + 0.1% formic acid; gradient (min/%B) 0/0.5 0.1/0.5 10/80 10.1/99.5 12/99.5; conditions: stereoisomer not certain
endpoint_label: LC retention time (min)

molecule	LC retention time, min
COc1cc(-c2cc(=O)c3c(O)cc(OC4OC(C(=O)O)C(O)C(O)C4O)cc3o2)cc(OC)c1O (centres undefined)	4.54
COc1ccc(C(=O)OC2CC3CCC(C2)N3C)cc1OC (centres undefined)	3.95
CC(C)=CCc1c(O)ccc(C(=O)C=Cc2ccc(O)cc2)c1O	8.93

[a] COc1ccc(-c2cc(=O)c3c(O)cc(OC4OC(C(=O)O)C(O)C(O)C4O)cc3o2)cc1O (centres undefined)
[b] CCC(C)C(N)C(=O)NC(CO)C(=O)O (centres undefined)
[c] CC(C)C(O)(C(=O)OCC1CCN2CCCC12)C(C)O (centres undefined)
[Q] // ascending sort on recorded LC retention time Rank them, then answer with their labels in that order.
[A] b, c, a
(b: 1.8 min, c: 3.05 min, a: 4.6 min)

###

assay: Waters ACQUITY UPLC BEH C18, 100 × 2.1 mm, 1.7 µm, 40 °C, 0.3 to 0.4 mL/min, estimated dead time 0.63 min; A: water + 0.1% formic acid; B: methanol + 0.1% formic acid; gradient (min/%B) 0/0.5 0.1/0.5 10/80 10.1/99.5 12/99.5; conditions: stereoisomer not certain
endpoint_label: LC retention time (min)

Would you please look over these solved cases?
compound	result
COc1ccc2c3c([nH]c2c1)C1CC2C(=CCO)CN1C1C3OCC21 (stereo not given)	3.6
O=c1c(OC2OC(CO)C(O)C(O)C2OC2OC(CO)C(O)C(O)C2O)c(-c2ccc(O)cc2)oc2cc(O)cc(O)c12 (stereo not given)	3.8
O=c1c(-c2ccc(O)cc2)coc2c(C3OC(CO)C(O)C(O)C3O)c(O)ccc12 (stereo not given)	3.27

[A] COC(=O)C1=C2Nc3ccccc3C23CCN2CCC1C(C(C)OC)C23 (stereo not given)
[B] O=C(C=Cc1ccc(O)cc1)OC1CC(O)(C(=O)O)CC(O)C1O (stereo not given)
[Q] Of A and B , which shows the smaller LC retention time value? Lab note: record the label of whichever item you select.
[A] B
(B: 3.08 min, A: 4.55 min)

###

experiment: Waters ACQUITY UPLC BEH C18, 100 × 2.1 mm, 1.7 µm, 40 °C, 0.3 to 0.4 mL/min, estimated dead time 0.63 min; A: water + 0.1% formic acid; B: methanol + 0.1% formic acid; gradient (min/%B) 0/0.5 0.1/0.5 10/80 10.1/99.5 12/99.5; settings: stereoisomer not certain
endpoint_label: LC retention time (min)

Would you please look over these solved cases?
molecule	LC retention time [min]
CC1(C)CC2C3=CCC4C5(C)CCC(O)C(C)(CO)C5CCC4(C)C3(C)CCC2(C)C(O)C1O (stereo unspecified)	8.94
CC(=O)OC1CC(C)CNC12OC1CC3C4CCC5CC(OC6OC(CO)C(OC7OC(CO)C(O)C(OC8OCC(O)C(O)C8O)C7OC7OC(CO)C(O)C(O)C7O)C(O)C6O)CCC5(C)C4CCC3(C)C1C2C (stereo unspecified)	4.78
OCC1OC(Oc2cc3c(OC4OC(CO)C(O)C(O)C4O)cc(O)cc3[o+]c2-c2ccc(O)c(O)c2)C(O)C(O)C1O (stereo unspecified)	2.5
COc1cccc(-c2oc3cc(OC)ccc3c(=O)c2O)c1	6.75
O=C(C=Cc1ccc(O)cc1)Oc1cc(O)c2c(=O)c(OC3OC(CO)C(O)C(O)C3O)c(-c3ccc(O)cc3)oc2c1 (stereo unspecified)	2.35

[A] O=c1c(O)c(-c2ccc(O)c(O)c2)oc2cc(OC3OC(CO)C(O)C(O)C3O)c(O)c(O)c12 (stereo unspecified)
[B] COc1cc(O)c2c(c1)OC(c1ccc(O)c(-c3c(O)cc(O)c4c(=O)cc(-c5ccc(O)cc5)oc34)c1)CC2=O (stereo unspecified)
[C] C=CCC(=NOS(=O)(=O)O)SC1OC(CO)C(O)C(O)C1O (stereo unspecified)
[D] COc1ccc(-c2coc3cc(O)c(CC=C(C)C)c(O)c3c2=O)cc1
[Q] Arrange the 4 molecules from largest to smallest LC retention time. Rank them, then answer with their labels in that order.
[A] D, B, A, C
(D: 8.02 min, B: 5.58 min, A: 3.72 min, C: 1.77 min)
